Target: T1, mouse MSR1 on RAW264.7 cells (mouse, UniProt P30204 1-458)
T1 construct: whole, on cells; also called MSR1 positive RAW264.7 cells
T1 sequence (looked up): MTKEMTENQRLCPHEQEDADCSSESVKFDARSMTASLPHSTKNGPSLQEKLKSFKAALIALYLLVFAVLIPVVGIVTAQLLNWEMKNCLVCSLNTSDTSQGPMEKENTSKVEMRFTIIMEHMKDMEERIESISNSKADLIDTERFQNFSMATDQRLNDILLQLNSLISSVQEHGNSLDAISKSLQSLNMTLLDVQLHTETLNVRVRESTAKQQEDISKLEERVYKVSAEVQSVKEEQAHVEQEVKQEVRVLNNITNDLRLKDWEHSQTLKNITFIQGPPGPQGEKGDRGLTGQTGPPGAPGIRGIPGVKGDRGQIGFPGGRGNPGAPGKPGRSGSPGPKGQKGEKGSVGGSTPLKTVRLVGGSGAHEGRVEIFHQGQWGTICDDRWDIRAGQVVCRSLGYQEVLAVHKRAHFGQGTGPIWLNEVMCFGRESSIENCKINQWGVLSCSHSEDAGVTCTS
Assay: flow cytometry, RAW264.7 cells
Measured endpoint: MFI (MFI)
The reply should contain only the number, in MFI.

- Binder: "H1H27754P-N297Q (antibody, human IgG1, V domains shown, human IgG1 Fc with N297Q) VH: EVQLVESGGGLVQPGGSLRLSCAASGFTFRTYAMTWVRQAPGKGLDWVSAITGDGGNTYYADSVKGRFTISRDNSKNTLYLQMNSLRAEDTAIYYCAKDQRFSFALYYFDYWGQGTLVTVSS VL: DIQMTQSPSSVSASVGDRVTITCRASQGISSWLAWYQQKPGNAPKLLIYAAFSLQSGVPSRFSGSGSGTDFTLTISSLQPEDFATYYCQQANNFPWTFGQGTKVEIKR"
  Recorded number: 5410
- Binder: "H1H27749P-N297Q (antibody, human IgG1, V domains shown, human IgG1 Fc with N297Q) VH: QVQLQESGPGLVKPSETLSLTCTVSDGSISSYYWSWIRQPPGRGLEWIGFIYYSGSTSYNPSLKSRVTISVDTSMSQFSLKLRSVTAADTAVYYCARGSPFDYWGPGTLVTVSS VL: EIVLTQSPGTLSLSPGERATLSCRASQSVSSSYLAWYQQRPGQAPSLLISGASRRATGIPDRFSGSGSGTDFTLTIRRLEPEDFAMYYCQQYGSSPPTFGGGTKVEIKR"
  Recorded number: 3790

// query Could you share which MFI value was measured for H1H27739P-N297Q (antibody, human IgG1, V domains shown, human IgG1 Fc with N297Q) VH: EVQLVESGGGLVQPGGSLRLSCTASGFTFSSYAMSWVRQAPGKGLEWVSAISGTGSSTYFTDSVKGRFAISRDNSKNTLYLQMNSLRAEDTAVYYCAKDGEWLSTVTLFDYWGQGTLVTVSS VL: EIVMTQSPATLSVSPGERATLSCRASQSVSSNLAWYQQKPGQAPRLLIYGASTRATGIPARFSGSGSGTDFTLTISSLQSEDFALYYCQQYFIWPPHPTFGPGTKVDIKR ?
// result 3270
